- Test Target: Human M4 (Homo sapiens, UniProt P08173)
- Sequence (P08173 whole entry): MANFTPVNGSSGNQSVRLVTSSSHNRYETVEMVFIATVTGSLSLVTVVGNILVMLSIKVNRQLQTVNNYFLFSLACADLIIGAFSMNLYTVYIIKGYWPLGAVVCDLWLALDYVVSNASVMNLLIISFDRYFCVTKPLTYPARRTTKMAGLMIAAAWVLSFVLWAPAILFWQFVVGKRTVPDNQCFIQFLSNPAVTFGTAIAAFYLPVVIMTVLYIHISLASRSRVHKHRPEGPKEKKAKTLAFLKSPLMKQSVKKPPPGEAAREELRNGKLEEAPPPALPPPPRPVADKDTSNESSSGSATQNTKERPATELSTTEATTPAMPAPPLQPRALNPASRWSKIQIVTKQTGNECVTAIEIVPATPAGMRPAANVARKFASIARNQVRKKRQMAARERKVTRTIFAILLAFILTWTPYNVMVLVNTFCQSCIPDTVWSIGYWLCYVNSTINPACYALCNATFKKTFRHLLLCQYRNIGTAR
- Test Summary: M4 cell-based functional assay (calcium mobilization)
- Design: expressed in transfected cells
- Measurement Parameters: % ACh maximum at 30 μM
- Method: Human (h) and rat (r) M4 CDNAs, along with the chimeric G protein Gqi5, were transfected into Chinese hamster ovary (CHO-K1) cells purchased from the American Type Culture Collection using Lipofectamine2000. […] The high throughput assay was employed to measure receptor-induced mobilization of intracellular calcium to determine compound activity. […] After a ˜2.5 minute incubation period, a submaximal (EC20) concentration of acetylcholine was added, and the response measured. […]
# reported Emax at 30 µM; entries follow

{"columns": ["Compound String", "Unit Tag", "Emax at 30 µM"],
 "data": [
  ["Cc1cc2nc(C(F)(F)F)cc(=O)n2nc1N1CCc2nc(Br)sc2C1", "%", 91],
  ["Cc1cc2nc(C(=O)N3CC(C)C3)cc(=O)n2nc1N1CCc2nc(Br)sc2C1", "%", 87],
  ["Cc1cc(C#N)cnc1N1CCc2ncsc2C1", "%", 92],
  ["COc1ccc2ncnc(N3CCc4nc(Br)sc4C3)c2c1", "%", 68],
  ["Cc1noc2ncnc(N3CCc4nc(Br)sc4C3)c12", "%", 113],
  ["Cc1cc2nc(=O)cc(C(F)(F)F)n2nc1N1CCc2nc(Br)sc2C1", "%", 76],
  ["[2H]C([2H])([2H])n1nc2nc(N3CCc4nc(C5(F)CC5)sc4C3)c(C)c(C)n2c1=O", "%", 83],
  ["Cc1cc2nccnc2nc1N1CCc2nc(C3CC3)sc2C1", "%", 82],
  ["Cc1cc2nc(C(=O)NC3(C#N)CC3)cc(=O)n2nc1N1CCc2nc(Br)sc2C1", "%", 91],
  ["Cc1cc2nccc(=O)n2nc1N1CCc2nc(Br)sc2C1", "%", 70],
  ["Cc1cn2c(=O)[nH]nc2nc1N1CCc2nc(C3CCC3)sc2C1", "%", 76],
  ["Cc1cc2nccnc2nc1N1CCc2nc(C(F)(F)F)sc2C1", "%", 72],
  ["Cc1cc2nccnc2nc1N1CCc2nc(C(C)(C)C)sc2C1", "%", 57],
  ["Cc1cc2nc(C)c(F)c(=O)n2nc1N1CCc2nc(Br)sc2C1", "%", 85]
]}
